Measured values drawn from patent US20160039676A1 for this set.

test: Electrochemical properties (onset oxidation/reduction potentials, HOMO, LUMO, gap); assay type: physicochemical; set-up: unit not given here; details: onset oxidation potential
Eox overview
Number only, no unit.

The cases that follow already have their Eox on record.
compound	meas.value
Cc1cccc(C)c1C(=O)OC12c3c4c5c6c7c8c(c9c%10c1c1c%11c3c3c%12c4c4c6c6c7c7c%13c8c9c8c9c%10c1c1c%10c%11c3c3c%11c%12c4c4c6c6c7c7c%13c8c8c9c1c1c%10c3c3c%11c4c6c4c7c8c1c34)C52O[Si](C)(C)C(C)(C)C (stereo not shown) [Formula 1d]	1.74
CCCC[Si](C)(C)OC12c3c4c5c6c7c8c(c9c%10c1c1c%11c3c3c%12c4c4c6c6c7c7c%13c8c9c8c9c%10c1c1c%10c%11c3c3c%11c%12c4c4c6c6c7c7c%13c8c8c9c1c1c%10c3c3c%11c4c6c4c7c8c1c34)C52OC(=O)c1c(C)cccc1C (stereo not shown) [Formula 1c]	1.80
Cc1cccc(C)c1C(=O)OC12c3c4c5c6c7c8c(c9c%10c1c1c%11c3c3c%12c4c4c6c6c7c7c%13c8c9c8c9c%10c1c1c%10c%11c3c3c%11c%12c4c4c6c6c7c7c%13c8c8c9c1c1c%10c3c3c%11c4c6c4c7c8c1c34)C52O[Si](C)(C)c1ccccc1 (stereo not shown) [Formula 1a]	1.76

Consider the compound Cc1cccc(C)c1C(=O)OC12c3c4c5c6c7c8c(c9c%10c1c1c%11c3c3c%12c4c4c6c6c7c7c%13c8c9c8c9c%10c1c1c%10c%11c3c3c%11c%12c4c4c6c6c7c7c%13c8c8c9c1c1c%10c3c3c%11c4c6c4c7c8c1c34)C52OC[Si](C)(C)c1ccccc1 (stereo not shown) [Formula 1b] and give its measured Eox.
1.71
